These data points were gathered from PubChem BioAssay (NCI).

# Test system: OVCAR-4 ovarian
# Test Protocol: NCI-60 one-dose screen, 48 h
# Test Parameters: 10 µM unless noted
About 83,000 compounds went through this panel and 20% of them were active in at least one assay; those are over-represented in the sample as a whole. Activity calls are given as the source filed them. How the source made its calls: active means growth percent below 10; inactive means the rest.
Your answer must be one of the following: YES (active), NO (inactive)

Below, 10 compounds whose answers are already recorded.
>>> category_label("CC(C)(N)Cc1ccccc1")
"NO"
>>> category_label("CNC12C3C4C1C1C2C3C41C(=O)N[C@H](C(=O)N(C)[C@H](C[C@@H](OC(C)=O)c1nc(C(=O)N[C@@H](Cc2ccccc2)C[C@H](C)C(=O)OC)cs1)C(C)C)C1CC1 (stereo partly drawn)")
"NO"
>>> category_label("CC[C@H](C)[C@H](NC(=O)[C@H]1CCCCN1C)C(=O)N(C)[C@H](C[C@@H](OC(C)=O)c1cccc(C(=O)N[C@@H](Cc2ccccc2)C[C@H](C)C(=O)O)n1)C(C)C")
"NO"
>>> category_label("ClCCN(CCCl)c1ccc(/C=N\\N=C\\c2ccc(N(CCCl)CCCl)cc2)cc1")
"NO"
>>> category_label("COC(=O)[C@H](C[C@H](Cc1ccccc1)NC(=O)c1csc([C@@H](C[C@H](C(C)C)N(C)C(=O)[C@@H](NC(=O)[C@H]2CCCCN2C)C(C)C)OC(C)=O)n1)NC(=O)OCc1ccccc1")
"NO"
>>> category_label("CC(C)CCC1(CCCl)C(=O)NC(=O)NC1=O")
"NO"
>>> category_label("C=COC(=O)CCN1CC1")
"NO"
>>> category_label("COc1ccc2c(c1)c(-c1nc(-c3c[nH]c4ncccc34)cs1)cn2CCCCN1CCCCC1")
"YES"
>>> category_label("COC(=O)[C@@H](C)C[C@H](Cc1ccccc1)NC(=O)c1csc([C@@H](C[C@H](C(C)C)N(C)C(=O)[C@@H](NC(=O)[C@H]2CCCCN2C)C2CCCCC2)OC(C)=O)n1")
"NO"
>>> category_label("N/C(=N/N=C/c1ccncc1)N[N+](=O)[O-]")
"NO"

Task item: Assay result, entry CCCCN(CCCC)P(=O)(Oc1ccccc1)Oc1ccccc1 — outcome?
Reply: NO

Task item: Per the records of this test, what outcome belongs to O=C1C(Cl)=C(N2CCOCC2)C(=O)c2ccccc21 ?
Reply: NO

Task item: Any idea what this test logged for COC1CC2c3ccccc3C1C(C)=[N+]2C (stereo not drawn) ?
Reply: NO

* * *

# Tested on: SK-MEL-28 melanoma
# Test Protocol: NCI-60 one-dose screen, 48 h
# Test Parameters: 10 µM unless noted
This is part of a sample that, as a whole, favours compounds with a hit. Of some 83,000 tested, about 20% had one in any assay. Active and inactive are the calls of the source. The calls were made as follows: active = growth percent below 10; inactive = the rest.
Please reply with one of these outcomes: active, inactive

Check out these entries, answers already filled in.
>>> category_label("CC(=O)O[C@H](C[C@H](C(C)C)N(C)C(=O)[C@@H](NC(=O)[C@H]1CCCCN1C)C(C)C)c1nc(C(=O)N[C@@H](Cc2ccccc2)C[C@H](C)C(=O)O)c(C(C)C)s1")
"inactive"
>>> category_label("CNC(=O)Oc1ccc2c(c1)OCO2")
"inactive"
>>> category_label("C1CCC2(CC1)OOCNCOO2")
"inactive"

Task item: What is the recorded call for this compound in the test? COc1ccc(/C=C\c2cc(OC)c(OC)c(OC)c2)cc1OCC(=O)Nc1nc2ccc(F)cc2s1
Reply: inactive

Task item: Each compound tested received a call. Report the one for Cc1c(O)c(CN(CCCl)CCCl)cc(CN(CCCl)CCCl)c1O .
Reply: inactive

Task item: Identify the outcome logged in this assay for the compound shown: CO[C@H](C(=O)O)[C@@H]1Cc2cc3cc(OC4CC(OC5CC(O)C(O)C(C)O5)C(O)C(C)O4)c(C)c(O)c3c(O)c2C(=O)[C@H]1OC1CC(OC2CC(OC3CC(C)(O)C(O)C(C)O3)C(O)C(C)O2)C(O)C(C)O1 (some centres not stated)
Reply: active

Task item: Identify the outcome logged in this assay for the compound shown: O=[N+]([O-])c1cc([N+](=O)[O-])c(Nn2c3ccccc3c3ccccc32)c([N+](=O)[O-])c1
Reply: inactive

Task item: // return assay outcome for COC(=O)[C@@H](C)C[C@H](Cc1ccccc1)NC(=O)c1csc(CC[C@H](C(C)C)N(C)C(=O)[C@@H](NC(=O)[C@H]2CCCCN2C)C(C)C)n1
Reply: inactive

Task item: What call does the record list for O=C(CN1CCN(C(=O)c2ccco2)CC1)Nc1ccc(Cl)cc1C(=O)c1ccccc1Cl ?
Reply: inactive

Task item: Query: recorded result category for CCC(C)(C)[C@H](NC(=O)[C@H]1CCCCN1C)C(=O)N(C)[C@H](C[C@@H](OC(C)=O)c1nc(C(=O)N[C@@H](Cc2ccccc2)C[C@H](C)C(=O)O)cs1)C(C)C in this test
Reply: inactive

Task item: Recorded test outcome, item COC(=O)[C@@H](C)C[C@H](Cc1ccc(F)cc1)NC(=O)c1csc([C@@H](C[C@H](C(C)C)N(C)C(=O)[C@@H](NC(=O)[C@H]2CCCCN2C)C2CC2)OC(C)=O)n1
Reply: inactive

Task item: Recorded test outcome, item C=COC(=O)CCN1CC1
Reply: inactive

Task item: Short answer needed: outcome of this test for CCOP(=O)(NC[C@H]1O[C@](O)(CO)[C@@H](O)[C@@H]1O)OCC ?
Reply: inactive

Task item: Recorded call for CC1(C)N=C(N)N=C(N)N1c1ccc(CCCCc2ccc(Cl)c(S(=O)(=O)F)c2)c(Cl)c1 ?
Reply: inactive

Task item: Lab log entry: ClC1=C(Cl)C(Cl)(C2(Cl)C(Cl)=C(Cl)C(Cl)=C2Cl)C(Cl)=C1Cl — outcome as called in the assay?
Reply: active

Task item: # fetch the recorded call for CCn1c2ccccc2c2cc(C(=O)c3ccc(C)c4ccccc34)ccc21 here
Reply: inactive

Task item: Please let me know the test result on file for COc1cc2ncnc(Nc3ccc(F)c(Cl)c3)c2cc1OCC(=O)N1CCN(C)CC1 .
Reply: inactive

Task item: Record lookup: outcome of this test for C[C@]12CC[C@H]3[C@@H](CC[C@]4(O)C[C@@H](O[C@@H]5O[C@H](CO)[C@@H](O[C@@H]6OC[C@@H](O)[C@H](O)[C@H]6O)[C@H](O)[C@H]5O)CC[C@]34C=O)[C@@]1(O)CC[C@@H]2C1=CC(=O)OC1 ?
Reply: inactive

Task item: Tell me the recorded outcome of this test for CCCCCCCOC(C(=O)OCCN(CC)CC)(c1ccccc1)c1ccccc1 .
Reply: inactive

Task item: For O=[N+]([O-])CC(c1ccccc1Cl)c1c(-c2ccccc2)[nH]c2ccccc12 (configuration not stated) , which call appears in the assay record?
Reply: inactive

Task item: Called result for C[C@@H]1CCC2[C@@H](C)[C@H](OC(=O)CCC(=O)NCCNC(=O)Cc3cc(=O)oc4cc(N(C)C)ccc34)O[C@@H]3O[C@]4(C)CC[C@@H]1C23OO4 (some centres not stated)
Reply: inactive

Task item: Answer briefly: the call reported for CN1C(=O)N[C@H]2[C@@H]3NC(=O)c4ccc(Br)n4[C@@H]3C[C@]21O in this assay.
Reply: active

Task item: Given O=C(Nc1ccc([As]=[As]c2ccc(NC(=O)c3ccccc3)cc2)cc1)c1ccccc1 (configuration not stated) , state the outcome it received in this test.
Reply: active

Task item: Dear colleague, could you share the recorded outcome for NC(=S)c1cn(C2OC(CO)C(O)C2O)c2ncnc(N)c12 (configuration not stated) when you have a moment?
Reply: active
